B1: DLC1 (parent)
chain: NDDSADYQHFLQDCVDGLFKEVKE

variants of: B1; assay: protein stability index of a GFP-peptide fusion (GPS, HEK-293T) (PSI 1-6); higher = more stable; conditions: c terminus: a fixed tail appended;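 also: lentivirally expressed fusions sorted by FACS into six bins by GFP to DsRed ratio, PSI derived from sequencing read proportions per bin multiplied by bin number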
Classify by measured protein stability index: satisfied if it is equal to or exceeds 3, not satisfied if it is smaller.

Worked examples follow.
A5D    not satisfied
E24F    not satisfied
K23F    not satisfied
E24H    not satisfied
Y7R    satisfied

Check this variant for protein stability index at or above 3: Q8I
not satisfied

Dear colleague, could you confirm whether D2Y has protein stability index at or above 3?
not satisfied

Could you please find out whether E24L has protein stability index that meets 3 or exceeds it?
not satisfied

Answer whether protein stability index of E21R is greater than or equal to 3.
not satisfied

Form field: protein stability index at least 3? Entry: V22M
satisfied

State whether the measured protein stability index reaches 3, counting equality as reaching it, for F10S
satisfied

Does protein stability index meet or surpass 3 for V22S ?
satisfied

Assess whether reported protein stability index for Q12F sits at 3 or higher.
satisfied

Say whether S4H shows protein stability index of 3 or more.
not satisfied

Is the recorded value of protein stability index equal to or greater than 3 for this variant? F10R
satisfied

Reported protein stability index reaches at least 3 for Q12L ?
satisfied

Reported protein stability index reaches at least 3 for N1V ?
not satisfied

// inclusive: protein stability index at least 3? input: E21Y
not satisfied
